Target: Mitogen-activated protein kinase kinase kinase kinase 1 (Homo sapiens, UniProt Q92918)
Sequence (Q92918 whole entry): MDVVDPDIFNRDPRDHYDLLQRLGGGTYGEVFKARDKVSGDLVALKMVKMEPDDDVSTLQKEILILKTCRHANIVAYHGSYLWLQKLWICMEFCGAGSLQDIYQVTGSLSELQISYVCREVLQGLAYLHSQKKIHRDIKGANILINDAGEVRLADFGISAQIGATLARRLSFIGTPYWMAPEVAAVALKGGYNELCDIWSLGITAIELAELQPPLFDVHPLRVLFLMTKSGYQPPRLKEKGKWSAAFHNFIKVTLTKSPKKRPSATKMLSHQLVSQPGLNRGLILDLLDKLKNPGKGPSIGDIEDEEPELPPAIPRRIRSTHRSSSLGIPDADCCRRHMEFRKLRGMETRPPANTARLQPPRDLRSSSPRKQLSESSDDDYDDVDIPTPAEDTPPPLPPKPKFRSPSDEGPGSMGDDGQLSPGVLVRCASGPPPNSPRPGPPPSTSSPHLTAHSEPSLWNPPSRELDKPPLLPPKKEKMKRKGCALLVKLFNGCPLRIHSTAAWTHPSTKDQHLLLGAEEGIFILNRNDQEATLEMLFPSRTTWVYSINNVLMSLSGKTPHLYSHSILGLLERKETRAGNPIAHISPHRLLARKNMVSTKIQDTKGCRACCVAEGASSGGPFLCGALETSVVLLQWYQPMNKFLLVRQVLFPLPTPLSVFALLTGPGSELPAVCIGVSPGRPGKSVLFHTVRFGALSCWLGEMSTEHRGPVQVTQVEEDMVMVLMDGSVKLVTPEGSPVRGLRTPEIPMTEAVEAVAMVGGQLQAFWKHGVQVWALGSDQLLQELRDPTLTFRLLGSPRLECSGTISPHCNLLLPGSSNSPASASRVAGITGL
Experiment: HPK1-SLP76 TR-FRET ASSAY
pIC50: −log10 of the molar value.
Categories are defined by ranges of pIC50, namely LOW = under 8, MEDIUM = from 8 up to 10, HIGH = 10 and over

Query string: Form: Item = COc1cc2c(cc1Nc1ncc3ccc(NCC4(C)CCC4)cc3n1)CN(C)CC2 ; Class = ?
Result string: LOW

Query string: Which category fits this record: COc1cc2c(cc1Nc1ncc3ccc(-c4cccc(C5CCC(=O)N5)c4)cc3n1)CN(C)CC2 (configuration not stated)
Result string: LOW

Query string: The entry to classify is Cc1c(-c2cc3nc(Nc4cc5c(cc4F)CCN(C)C5)ncc3c(N)c2F)cnc2c1NCCO2 ; which class holds it?
Result string: HIGH

Query string: Class (by measured pIC50) for CC(=O)N1CCC[C@H]1c1ccc(Nc2ncc3c(N)c(F)c(-c4cnc5c(c4C)NCCO5)cc3n2)cc1
Result string: MEDIUM

Query string: Consider COc1cc2c(cc1Nc1ncc3ccc(Nc4cccc(S(C)(=O)=O)c4)cc3n1)CN(C)CC2 . To which pIC50 class does it belong?
Result string: LOW

Query string: Hey, which category is COc1cc([C@H]2CCN(C)C2=O)ccc1Nc1ncc2c(N)c(F)c(-c3cnc4c(c3C)NCCO4)cc2n1 in, do you know?
Result string: MEDIUM

Query string: Bin this entry: COc1cc2c(cc1Nc1ncc3ccc(NCC4CCS(=O)(=O)C4)cc3n1)CN(C)CC2 (configuration not stated)
Result string: LOW

Query string: Category lookup for the compound Cc1c(-c2cc3nc(Nc4ccc5c(c4)CN(C)CC5)ncc3c(N)c2F)cnc2c1NCCO2
Result string: HIGH

Query string: Into which category would you place COc1cc2c(cc1Nc1ncc3ccc(NC[C@@H]4CC(=O)N(C)C4)cc3n1)CN(C)CC2 ?
Result string: LOW

Query string: # bin lookup: classify Cc1c(-c2cc3nc(Nc4ccc5c(c4)CN(C)CC5)ncc3c(N)c2F)cnc2c1NCC(C)O2 (configuration not stated) by its pIC50
Result string: HIGH

Query string: Bin? CNC(=O)C1(c2ccc(Nc3ncc4c(N)c(F)c(-c5cnc6c(c5C)NCCO6)cc4n3)cc2)CCCC1
Result string: HIGH

Query string: Which band does COc1cc2c(cc1Nc1ncc3ccc(Nc4ccc5c(c4)C(=O)NCC5)cc3n1)CN(C)CC2 fall in?
Result string: LOW

Query string: Input COc1ccccc1Nc1ncc2c(N)c(F)c(-c3cnc4c(c3C)NCCO4)cc2n1 ; output its category
Result string: MEDIUM

Query string: Which class is correct for the following compound? Cc1c(-c2cc3nc(Nc4ccc5c(c4)CN(C(C)C)CC5)ncc3c(N)c2F)cnc2c1NCC(C)O2 (configuration not stated)
Result string: HIGH

Where do these numbers come from? They come from BindingDB's records for patent WO2022098806.
